settings: in isopropanol, 338.18 K
observable: solubility (mole fraction)

smiles_repr: c1nc[nH]n1
observable: solubility (mole fraction)
measured_result: 0.363

---

details: in n-butyl acetate, 348.18 K
observable: solubility (mole fraction)

smiles_repr: c1nc[nH]n1
observable: solubility (mole fraction)
measured_result: 0.113

---

conditions: in ethanol, 318.23 K
observable: solubility (mole fraction)

smiles_repr: c1nc[nH]n1
observable: solubility (mole fraction)
measured_result: 0.28

---

conditions: in n-propanol, 318.2 K
observable: solubility (mole fraction)

smiles_repr: c1nc[nH]n1
measured_result: 0.256

---

conditions: in n-butyl acetate, 358.18 K

smiles_repr: c1nc[nH]n1
solubility (mole fraction): 0.167

Hey, just so you know, these numbers are from BigSolDB 2.1.
